# MIC (ppm) annotations
Test: Minimum inhibitory concentration (MIC) of antimicrobials / essential oils
Type: cell-based
Conditions: Table II, particularly preferred essential oils; test organism not given
measurement-name: MIC (ppm)

> print(dat)
                                   compound  measurement.name  measured.result
1  CC(=O)OCc1ccc2c(c1)OCO2 [Piperonyl acetate]         MIC (ppm)              242
2                        CC(C)=CCCC(C)=CC=O         MIC (ppm)              228
3                         CC(C)c1ccc(CO)cc1         MIC (ppm)              450
4                    COC(C=C(C)CCC=C(C)C)OC         MIC (ppm)              198
5           CCOC(=O)C(C)=O [Ethyl pyruvate]         MIC (ppm)             1392
6   CC1(C)C2CC=C(CO)C1C2 (centres unmarked)         MIC (ppm)              137
7        CC(C)CCCC(C)CCO (centres unmarked)         MIC (ppm)             15.8
8  CCCCC/C=C/C=C/C=O [trans, trans-2,4-Decadienal]         MIC (ppm)                8

====

Test: Minimum inhibitory concentration (MIC) of antimicrobials / essential oils
Format: cell-based
Conditions: Table I, preferred essential oils; test organism not given; read-out: MIC (ppm)
# log10 of MIC annotations
measurement-name: log10 of MIC (log10 of the value in µg/mL)

> print(dat)
                                   molecule  measured.result
1       CC(C)=CCCC(C)CCO (stereo not drawn)             2.10
2                               CCC=C(C)C=O             3.10
3  O=C(OCc1ccccc1)c1ccc(O)cc1 [Benzyl-4-hydroxybenzoate]             1.83
4                                 CCCCCCCCO             2.39
5    COC(=O)c1ccccc1N [Methyl anthranilate]             2.49
6  CCOC(=O)CCC1CCCCC1 [Ethyl cyclohexanepropionate]             2.26

====

Assay: Minimum inhibitory concentration (MIC) of antimicrobials / essential oils
Format: cell-based
Conditions: Table I, preferred essential oils; test organism not given; read-out: MIC (ppm)
# MIC annotations
measurement-name: MIC (µg/mL)

> print(dat)
                             compound  units.symbol  measured.result
1                        CCCCCCCCCCCO         µg/mL               14
2  CCCCCCCCC(=O)OC [Methyl nonanoate]         µg/mL               90
3            CC(C)=C1CC[C@@H](C)CC1=O         µg/mL              152
4                  CC(C)=CCCC(C)=CC=O         µg/mL              228
5  CC(C)CCCC(C)CCO (stereo not shown)         µg/mL             15.8
6                         CCCCCCCCCCO         µg/mL               24
7                       CCCCCCCC(=O)O         µg/mL              115

====

# log10 MIC annotations
Assay: Minimum inhibitory concentration (MIC) of antimicrobials / essential oils
Assay type: cell-based
Settings: Table I, preferred essential oils; test organism not given; read-out: MIC (ppm)
measurement-name: log10 MIC (log10 of the value in µg/mL)

> print(dat)
                                   compound  measured.result
1                    COC(C=C(C)CCC=C(C)C)OC             2.30
2  CC(=O)OCCC1CCCCC1 [2-Cyclohexylethyl acetate]             2.01
3                             CCCCCCCCCCC=O             1.53
4  CC(=O)OCCc1scnc1C [4-Methyl-5-thiazoleethanol acetate]             3.05
5                              CCCCCCCCCC=O             1.67
6  C=C(C)C1CC=C(C)C(=O)C1 (stereo not drawn)             2.48

====

Assay: Minimum inhibitory concentration (MIC) of antimicrobials / essential oils
Assay type: cell-based
Settings: Table I, preferred essential oils; test organism not given; read-out: MIC (ppm)
# MIC annotations
measurement-name: MIC

> print(dat)
                                   molecule  measured.result
1                            CCCCCCCCC(=O)O         63 µg/mL
2       CCCOC(=O)c1ccccc1 [Propyl benzoate]         66 µg/mL
3                         O=C(O)CCCC1CCCCC1         68 µg/mL
4                     CC/C=C\CC1=C(C)CCC1=O        246 µg/mL
5   CC1=CCC(O)(C(C)C)CC1 (stereo not drawn)        616 µg/mL
6  CCCCC/C=C/C=C/C=O [trans, trans-2,4-Decadienal]          8 µg/mL
7                            O=CC=Cc1ccccc1         66 µg/mL
8           CCOC(=O)C(C)=O [Ethyl pyruvate]       1390 µg/mL
9                          COc1cc(C=O)ccc1O       1220 µg/mL

Origin of the recorded values: patent US6562387B2
